This collection of values is drawn from PubChem BioAssay AID1259371.

# Assay target: Microphthalmia-associated transcription factor (Homo sapiens)
# Test: MITF inhibitors, potency by titration, dose response, biochemical, AlphaScreen, human (AID 1259371)
# Experimental conditions: AlphaScreen biochemical MITF assay, signal inhibition
The source made the active and inactive calls. No rule for the calls is given here.
Outcomes: active, inactive

INSERT INTO assay_data (compound, category) VALUES
  ('O=C(NCc1ccccc1)N1CCN2C(=O)[C@@H]3CSCN3C(=O)[C@H]2C1', 'inactive'),
  ('CC(O)(CNCCN1CCOCC1)COc1ccc(Cl)cc1 (stereo not given)', 'inactive'),
  ('CN=C1SC(CC(=O)Nc2cccc(C(=O)O)c2)C(=O)N1C (stereo not given)', 'inactive'),
  ('COc1cc(OC)c(C(=O)OC2CCCC2=O)cc1OC (stereo not given)', 'inactive'),
  ('CCN1CCc2c(sc(NC(=S)NC(=O)/C=C/c3ccco3)c2C(N)=O)C1', 'active'),
  ('CC(Oc1ccc(O)cc1)(P(=O)(O)O)P(=O)(O)O', 'active'),
  ('Nc1ccc(O)c(C(=O)O)c1', 'active'),
  ('NC(=O)COC(=O)c1cc2c(s1)CCC2', 'inactive'),
  ('C=CCc1cc(C)ccc1OCCCCn1ccnc1', 'inactive'),
  ('O=C(C1CCC(Nc2nccc(-c3ccc4nc(C5CC5)[nH]c(=O)c4c3)n2)CC1)N1CCCC1 (stereo not given)', 'inactive'),
  ('Cc1cc2c(c(=O)[nH]1)C(=O)O/C2=C\c1ccco1', 'active'),
  ('O=C1N[C@@H](Cc2c[nH]c3ccccc23)C(=O)N2CCN(C(=O)NC3CCCCC3)C[C@H]12', 'inactive'),
  ('CCS(=O)(=O)NCC(c1cccs1)S(=O)(=O)c1ccc(C)cc1 (stereo not given)', 'active'),
  ('c1cc2c(cc1CNc1nc(Nc3ccc(N4CCOCC4)cc3)c3ncn(C4CCCCC4)c3n1)OCO2', 'inactive'),
  ('Cc1cc(O)c2c(c1)Cc1cccc(O)c1C2=O', 'active'),
  ('COC(=O)CCc1cc2c(C)cc(=O)oc2cc1OCc1ccc(C)cc1', 'inactive'),
  ('O=C(O)c1cc(NN=C2CCCC2)ccc1Cl', 'active'),
  ('N#Cc1c(-c2ccc3c(c2)OCO3)nc(N2CCCCC2)[nH]c1=O', 'inactive'),
  ('COC(=O)CN(CCN(CC(=O)O)CC(=O)OC)CC(=O)O', 'inactive'),
  ('CN(C)CCn1nnnc1SCC1=C(C(=O)O)N2C(=O)[C@@H](NC(=O)Cc3csc(N)n3)[C@H]2SC1', 'active'),
  ('O=c1[nH]c(-c2ccco2)nc2sc3c(c12)CCCC3', 'active'),
  ('c1cncc(CNc2nc(Nc3ccc(N4CCOCC4)cc3)c3ncn(C4CCCCC4)c3n2)c1', 'inactive'),
  ('Cc1occc1C(=O)N/N=C/C=C/c1ccco1', 'active'),
  ('O=C(O)c1cc(S(=O)(=O)Nc2ccc3cn[nH]c3c2)ccc1O', 'inactive'),
  ('CCC(C)NCCOc1cccc(Br)c1 (stereo not given)', 'inactive'),
  ('Oc1ccc(CCNc2cc(-c3cccs3)ncn2)cc1', 'inactive'),
  ('CN(C)CCS(=O)c1cc(-c2cn[nH]c2)ccc1NC(=O)[C@@H]1Cc2cc(F)ccc2CN1 (stereo not given in full)', 'inactive'),
  ('O=C1N[C@@H](CSCc2ccccc2)C(=O)N2CCN(C(=O)NCc3ccccc3)C[C@H]12', 'active'),
  ('COCCCNC(=O)/C(C#N)=C/c1ccc(-c2ccc(C(=O)O)c(Cl)c2)o1', 'inactive'),
  ('NC(=O)c1cc(NC(=O)COC(=O)COc2cccc(C(F)(F)F)c2)cc(C(N)=O)c1', 'inactive'),
  ('O=C1N[C@H](Cc2ccccc2)C(=O)N2CCN(C(=O)NCc3ccccc3)C[C@H]12', 'inactive'),
  ('COc1ccc(S(=O)(=O)N2CCN(Cc3ccccc3[N+](=O)[O-])CC2)cc1', 'inactive'),
  ('CCOC(=O)C1C2NC(=S)N(c3ccc(CC)cc3)C1(C)Oc1c(OCC)cccc12 (stereo not given)', 'inactive'),
  ('CCc1ccc(NC(=O)CCc2nc(C3=CCN(C)CC3)no2)cc1', 'inactive'),
  ('O=C(O)CSc1cc(Cl)c2nonc2c1[N+](=O)[O-]', 'inactive'),
  ('O=C(O)c1ccc(-n2cccc2)cc1Cl', 'active'),
  ('NC(=O)C1CCN(C(=O)c2cc(-c3ccco3)nc3ccccc23)CC1', 'active'),
  ('COc1ccc(OC)c(CN2CCN(Cc3ccc(F)cc3)CC2)c1', 'inactive'),
  ('NC(=O)n1c(CCC(=O)O)nc2sc3c(c2c1=O)CCC3', 'active'),
  ('COc1ccc(CN2CCN(Cc3cccc(Cl)c3)CC2)cc1Br', 'inactive'),
  ('C[C@@H](OCc1ccccc1)[C@@H]1NC(=O)[C@H]2CN(C(=O)NC3CCCCC3)CCN2C1=O', 'inactive'),
  ('CC(Oc1ccc2c(C(F)(F)F)cc(=O)oc2c1)C(=O)NN (stereo not given)', 'inactive'),
  ('COc1ccc2c(c1)CC(C(=O)Nc1ccc(-c3cn[nH]c3)cc1OCC#N)CO2 (stereo not given)', 'inactive'),
  ('Cc1cc(CSC(=N)N)c(O)c(C)n1', 'active'),
  ('Cc1ccn2c(NCC3CCCO3)c(-c3ccc(O)cc3O)nc2c1 (stereo not given)', 'active');

---

# Assay target: Microphthalmia-associated transcription factor (Homo sapiens) (UniProt O75030)
# Sequence (O75030 whole entry, looked up): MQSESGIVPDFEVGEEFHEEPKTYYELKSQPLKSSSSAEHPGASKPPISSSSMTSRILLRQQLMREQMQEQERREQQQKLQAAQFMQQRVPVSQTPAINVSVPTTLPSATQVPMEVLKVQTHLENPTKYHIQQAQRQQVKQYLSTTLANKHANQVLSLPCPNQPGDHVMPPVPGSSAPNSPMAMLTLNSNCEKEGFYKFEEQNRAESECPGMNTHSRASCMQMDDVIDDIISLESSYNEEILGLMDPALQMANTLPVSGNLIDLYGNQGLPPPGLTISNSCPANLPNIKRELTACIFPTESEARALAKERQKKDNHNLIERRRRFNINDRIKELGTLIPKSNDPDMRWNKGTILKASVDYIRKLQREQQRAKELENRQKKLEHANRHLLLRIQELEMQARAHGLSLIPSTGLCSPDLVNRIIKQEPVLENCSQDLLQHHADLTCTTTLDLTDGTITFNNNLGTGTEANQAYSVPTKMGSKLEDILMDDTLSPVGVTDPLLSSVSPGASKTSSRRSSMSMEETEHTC
# Test: MITF inhibitors, potency by titration, dose response, biochemical, AlphaScreen, human (AID 1259371)
# Experimental conditions: AlphaScreen biochemical MITF assay, signal inhibition
Calls of active or inactive are those of the source. No rule for the calls is given here.
Metric name: IC50

INSERT INTO assay_data (compound, assay_target, value) VALUES
  ('c1coc(CNc2ccc3ncc(-c4ccco4)n3n2)c1', 'Microphthalmia-associated transcription factor (Homo sapiens) (UniProt O75030)', 'inactive'),
  ('COc1ccc2c(c1)CC(C(=O)Nc1ccc(-c3cn[nH]c3)cc1OCc1ccccc1)CO2 (stereo unspecified)', 'Microphthalmia-associated transcription factor (Homo sapiens) (UniProt O75030)', 'inactive'),
  ('NC(=O)c1ccc(N=Cc2cc3c(cc2[N+](=O)[O-])OCO3)cc1', 'Microphthalmia-associated transcription factor (Homo sapiens) (UniProt O75030)', 'inactive'),
  ('O=C1OC(c2cccc([N+](=O)[O-])c2)=N/C1=C\c1ccc(OCc2ccccc2)cc1', 'Microphthalmia-associated transcription factor (Homo sapiens) (UniProt O75030)', '> 4.62 µM (inactive)'),
  ('COC(C)(C)CNC(=O)C1CCN(C2CCN(Cc3cccc(C)n3)CC2)CC1', 'Microphthalmia-associated transcription factor (Homo sapiens) (UniProt O75030)', 'inactive'),
  ('O=C(COC(=O)COc1ccc(Cl)cc1)NCc1ccco1', 'Microphthalmia-associated transcription factor (Homo sapiens) (UniProt O75030)', '> 2.4 µM (inactive)');
